# testSystem: T1, his-tagged human BCMA protein (ACROBiosystems, catalog # BCA-H522y-100 ug) (human, UniProt Q02223 1-54)
# T1 construct: limits of the bought construct are not otherwise stated; also called recombinant his-tagged human BCMA; not shown: his tag of the bought protein
# T1 sequence: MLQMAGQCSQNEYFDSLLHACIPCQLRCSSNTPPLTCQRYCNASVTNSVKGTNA
# experimentNotes: SPR (Biacore T200), antibody captured on anti-human Fc, his-tagged human BCMA as analyte; fit with ka1/kd1/ka2/kd2 (model not named)
Recorded ka2, one value per entry.
measuredEndpoint: ka2 (s⁻¹)

[[record]]
binder = "BCA7-2E8 antibody (antibody, V domains shown) VH: EVQLVESGGGLVKPGGSLRLSCAASGFTSSTAWMSWVRQAPGKGLEWVGRIKSKSDGGTTDYAAPVKGRFTISRDDSKNTLFLQMNSLKTEDTAVYYCAKGGGTYGYWGQGTTVTVSS VL: QSVLTQPASVSGSPGQSVTISCTGTSSDVGGYNYVSWYQQHPGKAPKLMIYDVSNRPSGVSNRFSGSKSGNTASLTISGLQAEDEADYYCGSLRSNGDYVFGTGTTLTVL"
valueunits = "s⁻¹"
endpointresult = 0.0119

[[record]]
binder = "BCA7-2C5 antibody (antibody, V domains shown) VH: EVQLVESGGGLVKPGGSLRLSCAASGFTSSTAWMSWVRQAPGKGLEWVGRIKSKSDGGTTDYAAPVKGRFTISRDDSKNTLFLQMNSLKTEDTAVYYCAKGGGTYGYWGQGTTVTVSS VL: QSALTQPASVSGSPGQSVTISCTGTSSAHGGHYYVSWYQQHPGKAPKLMIYDVSNRPSGVSNRFSGSKSGNTASLTISGLQAEDEADYYCGSYTSSGSYVFGTGTKLTVL"
valueunits = "s⁻¹"
endpointresult = 0.000847

[[record]]
binder = "BCA7-2G2 antibody (antibody, V domains shown) VH: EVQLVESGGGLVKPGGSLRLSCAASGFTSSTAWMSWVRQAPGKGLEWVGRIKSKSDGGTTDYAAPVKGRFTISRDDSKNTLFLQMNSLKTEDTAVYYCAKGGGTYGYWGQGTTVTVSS VL: QSVLTQPASVSGSPGQSVTISCTGTSSSVGGRQYVSWYQQHPGKAPKLMIYDVSNRPSGVSNRFSGSKSGNTASLTISGLQAEDEADYYCGSYTSSGSYVFGTGTKLTVL"
valueunits = "s⁻¹"
endpointresult = 0.00143

